Readings of melting point for the listed compounds
Measurement label: melting point

> print(dat)
                               query.smiles       reported
1  O[C@@H]1[C@@H](O)[C@H](Oc2cccc(-c3ccccn3)c2)SC[C@H]1O  138 to 139 °C
2  O[C@@H]1[C@@H](O)[C@H](Oc2ccccc2-c2ccncc2)SC[C@H]1O         134 °C
3  COc1ncccc1-c1cccc(O[C@@H]2SC[C@@H](O)[C@H](O)[C@H]2O)c1         194 °C
4  O[C@@H]1[C@@H](O)[C@H](Oc2ccc(-c3ccccn3)cc2)SC[C@H]1O         197 °C
5  Cc1ccc(-c2cccc(O[C@@H]3SC[C@@H](O)[C@H](O)[C@H]3O)c2)cn1         177 °C
6  O[C@@H]1[C@@H](O)[C@H](Oc2ccccc2-c2cccnc2)SC[C@H]1O         195 °C
7  O[C@@H]1[C@@H](O)[C@H](Oc2ccc(-c3cccnc3)cc2)SC[C@H]1O         166 °C
8  O[C@@H]1[C@@H](O)[C@H](Oc2cccc(-c3cccnc3)c2)SC[C@H]1O         197 °C
9  O[C@@H]1[C@@H](O)[C@H](Oc2ccc(-c3cccnc3)cc2F)SC[C@H]1O         207 °C
